experimental details: BET inhibitor-based combinations targeting novel dependencies in MECOM-rearranged (r) AML: UCSD-AML1 cell line (AID 2202235); also: nearly all actives have a fitted effect of over 40% in size
settings: UCSD-AML1 AML cells viability, CellTiter-Glo, 48 h; series mostly up to 46 µM
Inconclusive results are not listed. The source made the active and inactive calls. Calls follow the shape of the dose curve; as a rule, active = well fitted inhibition curve with a large enough effect; inconclusive = small, poorly fitted or top-dose-only effect; inactive = no such curve, though single readings can be large or run the other way.
Outcomes: y (active), n (inactive)

smiles data	class name
CC(C)(O)CC[C@@H](O)[C@](C)(O)[C@H]1CC[C@@]2(O)C3=CC(=O)[C@@H]4C[C@@H](O)[C@@H](O)C[C@]4(C)[C@H]3CC[C@]12C	n
Nc1nc(Nc2ccc3c(c2)CC[C@@H](N2CCCC2)CC3)nn1-c1cc2c(nn1)-c1ccccc1CCC2	y
O=C(/C=C\n1cnc(-c2cc(C(F)(F)F)cc(C(F)(F)F)c2)n1)N1CC(F)(F)C1	y
NC[C@H]1O[C@H](O[C@H]2[C@H](O)[C@@H](O[C@H]3O[C@H](CO)[C@@H](O)[C@H](N)[C@H]3O)[C@H](N)C[C@@H]2N)[C@H](N)C[C@@H]1O	n
Nc1cccc2c1CN([C@H]1CCC(=O)NC1=O)C2=O	n
c1ccc(-c2cc(CCC3CCNCC3)c3ccccc3n2)cc1	y
CC[C@H]1OC(=O)[C@H](C)[C@@H](O[C@H]2C[C@@](C)(OC)[C@@H](O)[C@H](C)O2)[C@H](C)[C@@H](O[C@@H]2O[C@H](C)C[C@H](N(C)C)[C@H]2O)[C@](C)(O)C[C@@H](C)CN(C)[C@H](C)[C@@H](O)[C@]1(C)O	n

###

experimental details: BET inhibitor-based combinations targeting novel dependencies in MECOM-rearranged (r) AML: AML-194 cell line (AID 2202237; also: nearly all actives have a fitted effect of over 40% in size)
settings: AML-194 (MECOM-r AML) viability, CellTiter-Glo, 48 h; series mostly up to 46 µM
Results filed as inconclusive are left out. The source made the active and inactive calls. Calls come from the whole dose curve; as a rule, active = well fitted inhibition curve with a large enough effect; inconclusive = small, poorly fitted or top-dose-only effect; inactive = flat fitted curve, though single readings scatter.
Outcomes: 1.0 for active, 0.0 for inactive

compound	class name
CC(C)c1c(-c2ccccc2)nc2c(C#N)c[nH]n2c1=O	0.0
CC(=O)NCCCS(=O)(=O)O	0.0
Cc1ccc(Sc2ccccc2N2CCNCC2)c(C)c1	1.0
CC#CC(=O)N1CC[C@@H](n2c(=O)n(-c3ccc(Oc4ccccc4)cc3)c3c(N)ncnc32)C1	0.0
COCCOc1cnc2ccn([C@H](C)c3nnc4c(F)cc(-c5cnn(C)c5)cn34)c(=O)c2c1	0.0
Cc1[nH]c2ccccc2c1CCNCc1ccc(/C=C/C(=O)NO)cc1	1.0
C[C@@H]1C(=O)OC2[C@H](O)[C@]34[C@H]5C[C@@H](C(C)(C)C)[C@]36[C@@H](OC(=O)[C@@H]6O)O[C@@]4(C(=O)O5)[C@]21O (stereo partly drawn)	0.0
C=CC(=O)Nc1cc(N2CCN(CC)CC2)ccc1Nc1cc(N(C)C(=O)Nc2c(Cl)c(OC)cc(OC)c2Cl)ncn1	0.0
COc1ccc2c(c1)c(C1=C(c3c[nH]c4ccccc34)C(=O)NC1=O)cn2CCCN(C)C	1.0
CC1=C2C[C@H]3[C@@H](CC[C@@H]4C[C@H](NS(C)(=O)=O)CC[C@@]43C)[C@@H]2CC[C@@]2(C1)O[C@@H]1C[C@H](C)CN[C@H]1[C@H]2C	1.0
O=C(/C=C/c1ccc(Cl)cc1)N1CCC2(CC1)CN(Cc1ccc(Cl)c(Cl)c1)C(=O)O2	0.0
Cc1cc(-c2nc3cc(F)ccc3s2)ccc1NC(=O)[C@@H](N)CCCCN	1.0
Cc1cc(O[C@@H](CCC(F)(F)F)c2ccc(C(=O)NCCC(=O)O)cc2)cc(C)c1-c1ccc(C(C)(C)C)cc1	1.0
COc1ccc(-c2cc(C(O)C3CCCCN3)c3ccccc3n2)cc1 (stereo not drawn)	1.0
CN(C)C/C=C/C(=O)Nc1cc2c(Nc3ccc(F)c(Cl)c3)ncnc2cc1O[C@H]1CCOC1	1.0
N#Cc1cccnc1N1CCN(C(=O)c2cccc(Cc3n[nH]c(=O)c4ccccc34)c2)CC1	1.0
COc1ccc(Cl)cc1-c1cc(=O)[nH]c(=S)n1CC(N)=O	0.0
Cc1ccc(NC(=O)c2ccc3c(c2)OCCO3)cc1NC(=O)c1ccc2nc(OCCN3CCCC3)ccc2c1	1.0

Taken from PubChem BioAssay (NCATS).
